Every entry's value here was drawn from patent US9487501B2.

# test target: mouse TAAR1 (Mus musculus (Mouse), UniProt Q923Y8)
# Sequence (Q923Y8 whole entry): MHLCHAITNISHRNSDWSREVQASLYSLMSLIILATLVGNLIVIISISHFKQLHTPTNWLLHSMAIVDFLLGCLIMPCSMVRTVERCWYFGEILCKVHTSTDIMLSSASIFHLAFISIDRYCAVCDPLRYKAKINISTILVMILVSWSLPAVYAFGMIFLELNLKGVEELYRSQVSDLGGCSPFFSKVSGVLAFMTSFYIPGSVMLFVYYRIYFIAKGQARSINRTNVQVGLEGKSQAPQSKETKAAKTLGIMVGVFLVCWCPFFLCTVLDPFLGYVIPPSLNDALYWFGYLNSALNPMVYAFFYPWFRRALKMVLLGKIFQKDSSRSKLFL
# assay name: Radioligand binding assay on mouse TAAR1
# reported conditions: read-out: Ki (μM) mouse; mouse TAAR1, membranes of HEK-293 cells, radioligand displacement
Structures can show the parent of a compound that is named as a salt.
Threshold-based label: Ki under 0.002 µM gives MET, Ki not under 0.002 µM gives NOT MET.

Worked examples, 6 compounds total:
N#Cc1cccc(-n2cc(C(=O)Nc3ccc([C@H]4CNCCO4)cc3)cn2)c1 [Example 13, hydrochloride]; NOT MET
O=C(Nc1ccc([C@H]2CNCCO2)cc1)c1cnn(-c2nc(C(F)(F)F)cs2)c1 [Example 57, hydrochloride]; MET
N#Cc1ccc(-n2cc(C(=O)Nc3ccc([C@H]4CNCCO4)cc3)cn2)cc1 [Example 6, hydrochloride]; NOT MET
O=C(Nc1ccc([C@H]2CNCCO2)cc1)c1cnn(-c2ccnc(C(F)(F)F)c2)c1 [Example 50, hydrochloride]; NOT MET
N#Cc1ccc(-n2cc(C(=O)Nc3ccc([C@H]4CNCCO4)cc3)cn2)c(F)c1 [Example 23, hydrochloride]; NOT MET
O=C(Nc1ccc([C@H]2CNCCO2)cc1)c1cnn(-c2ccc(Br)cn2)c1 [Example 9, hydrochloride]; MET

Would you kindly look at the next entry?
Q: Would you kindly verify if Ki of O=C(Nc1ccc([C@H]2CNCCO2)cc1)c1cnn(-c2ccnc(C(F)(F)F)n2)c1 [Example 34, hydrochloride] is strictly less than 0.002 µM?
Ans: NOT MET

* * *

# test target: mouse TAAR1 (Mus musculus (Mouse))
pKd: −log10 of the molar value.
assay endpoint: pKd

Q: Return reported pKd. Input compound: CCN(C[C@H]1COC(N)=N1)c1ccccc1 [reference compound]
Ans: ~9.15

* * *

Field: Ki. Provide a value for each of the compounds that follow.
# test target: UniProt Q923Y8
# assay name: Radioligand binding assay on mouse TAAR1
# reported conditions: read-out: Ki (μM) mouse; mouse TAAR1, membranes of HEK-293 cells, radioligand displacement
Counter-ions that a name gives are not always drawn.
Numbers only, in µM.

Observe how each entry below is paired with its result.
O=C(Nc1ccc([C@H]2CNCCO2)cc1)c1cnn(-c2cc(Cl)ccn2)c1 [Example 15, hydrochloride]; 0.0016
O=C(Nc1ccc([C@H]2CNCCO2)cc1)c1cnn(-c2ccnc(Cl)n2)c1 [Example 36, hydrochloride]; 0.0086
O=C(Nc1ccc([C@H]2CNCCO2)cc1)c1cnn(-c2ccc(F)cc2)c1 [Example 4, hydrochloride]; 0.0007

Q: Hello, please tell me recorded Ki for this one: Cc1c(C(=O)Nc2ccc([C@H]3CNCCO3)cc2)cnn1-c1ccc(OC(F)F)cc1 [Example 31, hydrochloride]
Ans: 0.0013

* * *

# test target: rat TAAR1 (Rattus norvegicus (Rat))
# Sequence (Q923Y9 whole entry): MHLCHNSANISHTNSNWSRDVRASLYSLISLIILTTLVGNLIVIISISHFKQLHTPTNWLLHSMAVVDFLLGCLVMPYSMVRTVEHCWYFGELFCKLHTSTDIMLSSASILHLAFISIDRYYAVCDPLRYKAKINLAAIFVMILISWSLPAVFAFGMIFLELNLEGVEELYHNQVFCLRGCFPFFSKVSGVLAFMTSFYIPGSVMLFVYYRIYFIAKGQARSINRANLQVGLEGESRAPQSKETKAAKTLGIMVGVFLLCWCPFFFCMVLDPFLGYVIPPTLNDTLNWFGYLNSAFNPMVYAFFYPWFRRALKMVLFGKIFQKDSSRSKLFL
# assay name: Radioligand binding assay on rat TAAR1;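 also: stably transfected HEK293 cell membranes with a tritiated radioligand, 1 h incubation at 4 °C, nonspecific binding taken as binding with 10 µM unlabeled ligand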
# reported conditions: read-out: Ki (μM) rat; rat TAAR1, membranes of HEK-293 cells, radioligand displacement
Where a name gives a salt, the structure may show the parent alone.
We'd kindly ask you to apply these Ki classes: bottom end (below 0.005 µM), midrange (0.005 µM to below 0.03 µM), top end (0.03 µM or more)

Q: // bin(item) where item = O=C(Nc1ccc([C@H]2CNCCO2)cc1)c1cnn(-c2cc(C(F)(F)F)ncn2)c1 [Example 44, hydrochloride]
Ans: bottom end
